system: OVCAR-8 ovarian; assay: NCI-60 one-dose screen, 48 h (100 = growth as untreated, 0 = no growth, -100 = all killed); conditions: 10 µM
Compounds without any hit were thinned out: in the full panel of roughly 83,000, 20% have a hit.
Rule: growth under 70% gives 0, otherwise 1.

As a guide, the following entries are already answered.
Textbook exercise: given the entry [Cl][Sn]([c]1ccccc1)([c]1ccccc1)[c]1ccccc1 , state whether its growth is greater than or equal to 70%.
0

Textbook exercise: given the entry CN(C)CC1(N)C(=O)NC(=O)NC1=O , state whether its growth is greater than or equal to 70%.
1

Textbook exercise: given the entry N#CCc1ccccc1 , state whether its growth is greater than or equal to 70%.
1

Textbook exercise: given the entry O=[N+]([O-])c1cc[n+]([O-])c2ccccc12 , state whether its growth is greater than or equal to 70%.
0

Textbook exercise: given the entry CCOP(=O)(OCC)/C(C#N)=C/c1ccc(Br)cc1 , state whether its growth is greater than or equal to 70%.
1

Textbook exercise: given the entry C[CH2][Hg][S]c1ccccc1C(=O)O , state whether its growth is greater than or equal to 70%.
0

Textbook exercise: given the entry CC/C(=C/c1ccc(OC)cc1)[N+](=O)[O-] , state whether its growth is greater than or equal to 70%.
0

Textbook exercise: given the entry COc1cc(/C=C/[N+](=O)[O-])cc(OC)c1OC , state whether its growth is greater than or equal to 70%.
0

New cases:
Textbook exercise: given the entry COc1ccc(/C=C(\C)[N+](=O)[O-])cc1OC , state whether its growth is greater than or equal to 70%.
0

Textbook exercise: given the entry O=[N+]([O-])c1ccc(N2CCOCC2)c2c1no[n+]2[O-] , state whether its growth is greater than or equal to 70%.
0

Textbook exercise: given the entry ClCc1ccc2ccccc2n1 , state whether its growth is greater than or equal to 70%.
1

* * *

system: SR leukemia; assay: NCI-60 one-dose screen, 48 h; details: 10 µM
Compounds without any hit were thinned out: in the full panel of roughly 83,000, 20% have a hit. Active and inactive are the calls of the source. How the source made its calls: active means growth percent below 10; inactive means the rest.
The reply should name one outcome from active, inactive

As a guide, the following entries are already answered.
Just curious, what result did CN(C)CC1(N)C(=O)NC(=O)NC1=O get here?
inactive

Just curious, what result did CC(=O)Nc1c2sscc-2n(C)c1=O get here?
active

Just curious, what result did S=C=NCCc1ccccc1 get here?
active

Just curious, what result did COc1cc(/C=C/[N+](=O)[O-])cc(Br)c1OC get here?
active

Just curious, what result did COC1CC2C=C(C)/C=C/C=C/C(=O)NC(c3ccccc3)C/C=C/CCC(O)CC(=O)C2=C1O (stereo unspecified) get here?
active

Attention now shifts to the item below.
Just curious, what result did CCCCCCCC[N+]12CN3CN(CN(C3)C1)C2 get here?
inactive

* * *

test system: HOP-62 NSCLC; assay: NCI-60 one-dose screen, 48 h (100 = growth as untreated, 0 = no growth, -100 = all killed); settings: 10 µM
This is part of a sample that, as a whole, favours compounds with a hit. Of some 83,000 tested, about 20% had one in any assay. The source made the active and inactive calls. How the source made its calls: active means growth percent below 10; inactive means the rest.
The following molecules are shown together with reported growth values.

For the molecule NNc1ccccc1 , report growth.
85.4% (inactive)

For the molecule O=C(O)c1cc(Cc2ccc(O)c(C(=O)O)c2)ccc1O (tested in a mixture with another compound) , report growth.
79.3% (inactive)

New cases:
For the molecule CCOP(=O)(OCC)C(O)c1ccccc1Cl (stereo unspecified) , report growth.
109% (inactive)

For the molecule COc1ccccc1/C=C/[N+](=O)[O-] , report growth.
97.1% (inactive)
